For each record, write down the corresponding viability, T/C.
# Tested on: 186277-243-T-J2-PDC complex spheroids, viability;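 also: spheroids exposed to compounds for 7 days before viability read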
# protocolText: Anticancer human tumor 186277-243-T-J2-PDC patient-derived colon adenocarcinoma cell line growth inhibition [RAS]
# assayConditions: second compound 0.316 µM; first compound 1 µM; hits give low values

Below, each entry is followed by its recorded viability, T/C result.
CC(Nc1ccc2c(c1)OCCn1cc(N3C(=O)OCC3C(F)F)nc1-2)C(N)=O (stereo not given) + C=CC(=O)N1CCN(c2nc(OCC3CCCN3C)nc3c(F)c(-c4nc(N)cc(C)c4C(F)(F)F)c(Cl)cc23)C(C)C1    42.5%
CCN1CCN(Cc2ccc(Nc3ncc(F)c(-c4cc(F)c5nc(C)n(C(C)C)c5c4)n3)nc2)CC1 + C#Cc1c(F)ccc2cc(O)cc(-c3ncc4c(N5CC6CCC(C5)N6)nc(OCC56CCCN5CC(F)C6)nc4c3F)c12    13.1%
C[C@@H](NC(=O)c1ncnc(N)c1Cl)c1ncc(C(=O)Nc2cc(C(F)(F)F)c(Cl)cn2)s1 + C#Cc1c(F)ccc2cc(O)cc(-c3ncc4c(N5CC6CCC(C5)N6)nc(OCC56CCCN5CC(F)C6)nc4c3F)c12    36%
NC1c2ccccc2OC12CCN(c1cnc3c(N4CCCc5ncccc54)n[nH]c3n1)CC2 (stereo not given) + C=CC(=O)N1CCN(c2nc(OCC3CCCN3C)nc3c(F)c(-c4nc(N)cc(C)c4C(F)(F)F)c(Cl)cc23)C(C)C1    85.3%

Switching to the query record.
Reported viability, T/C ( CC(Nc1ccc2c(c1)OCCn1cc(N3C(=O)OCC3C(F)F)nc1-2)C(N)=O (stereo not given) + C#Cc1c(F)ccc2cc(O)cc(-c3ncc4c(N5CC6CCC(C5)N6)nc(OCC56CCCN5CC(F)C6)nc4c3F)c12 ) = 2.32%
